target: Free fatty acid receptor 1 (Homo sapiens, UniProt O14842); experiment: Agonist activity at recombinant human GPR40 expressed in HEK293 cells assessed as increase in IP1 accumulation measured after 60 mins in presence of 100% human serum by HTRF assay; assay type: functional, cell-based
Sequence (O14842 whole entry): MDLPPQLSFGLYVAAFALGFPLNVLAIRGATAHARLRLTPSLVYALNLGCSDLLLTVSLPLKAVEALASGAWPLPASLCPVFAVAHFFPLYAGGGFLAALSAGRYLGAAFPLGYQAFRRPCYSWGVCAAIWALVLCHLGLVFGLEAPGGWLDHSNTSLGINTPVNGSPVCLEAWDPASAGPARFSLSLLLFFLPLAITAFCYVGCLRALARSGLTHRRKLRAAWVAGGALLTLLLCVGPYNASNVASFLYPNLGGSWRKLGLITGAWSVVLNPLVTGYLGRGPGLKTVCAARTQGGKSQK
Give EC50 for every item shown.
Numbers only, in nM.

| compound | measure unit | readout value |
| --- | --- | --- |
| COc1cc(-c2ccc(C3CCc4ccc([C@H](C5CC5)[C@H](C)C(=O)O)cc4O3)c(F)c2)ccn1 (mixture of isomers) | nM | 920 |

Need EC50 for each of these compounds.
1. COc1cc(-c2ccc(C3CCc4ccc([C@H](C5CC5)[C@H](C)C(=O)O)cc4O3)nc2)ccn1 (stereo in doubt; 32)
2. COc1ccc(F)c(-c2ccc(C3CCc4ccc([C@@H](CC(=O)O)C5CC5)cc4O3)cc2)c1 (mixture of isomers)

Reply:
838
1230

====

target: Free fatty acid receptor 1 (Homo sapiens); experiment: Agonist activity at recombinant human GPR40 expressed in HEK293 cells assessed as increase in IP1 accumulation measured after 60 mins by HTRF assay relative to AM-1638; type: functional, cell-based
Give max activation for every item shown.

| compound | target under test | measurement name | readout value |
| --- | --- | --- | --- |
| COc1cc(-c2ccc(C3CCc4ccc([C@@H](CC(=O)O)C5CC5)cc4O3)cc2)c(F)cn1 (some centres undefined) | Free fatty acid receptor 1 (Homo sapiens) | max activation | 460% |
| COc1ccc(F)c(-c2ccc(C3CCc4ccc([C@H](C5CC5)[C@H](C)C(=O)O)cc4O3)cn2)c1 (stereo in doubt; 19) | Free fatty acid receptor 1 (Homo sapiens) | max activation | > 179% |
| COc1ccc(F)c(-c2ccc(C3CCc4ccc([C@H](C5CC5)[C@H](C)C(=O)O)cc4O3)cn2)c1 (stereo in doubt; 18) | Free fatty acid receptor 1 (Homo sapiens) | max activation | > 179% |
| O=C(O)C[C@H](c1ccc2c(c1)OC(c1ccc(-c3ccccc3)cc1)CC2)C1CC1 (single isomer, unassigned) | Free fatty acid receptor 1 (Homo sapiens) | max activation | 452% |
| COc1cc(-c2ccc(C3CCc4ccc([C@@H](CC(=O)O)C5CC5)cc4O3)cc2)ccn1 (mixture of isomers) | Free fatty acid receptor 1 (Homo sapiens) | max activation | 401% |
| COc1cc(-c2ccc(C3CCc4ccc([C@H](C5CC5)[C@H](C)C(=O)O)cc4O3)nc2)c(F)cn1 (stereo in doubt; 28) | Free fatty acid receptor 1 (Homo sapiens) | max activation | > 179% |

Hi! Can you tell me max activation for each of these compounds?
1. COc1cc(-c2ccc(C3CCc4ccc([C@H](C5CC5)[C@H](C)C(=O)O)cc4O3)nc2)ccn1 (stereo in doubt; 33)
2. COc1cc(-c2cnc(C3CCc4ccc([C@H](C5CC5)[C@H](C)C(=O)O)cc4O3)c(F)c2)c(F)cn1 (stereo in doubt; 30)
3. COc1cc(-c2ccc(C3CCc4ccc([C@H](C5CC5)[C@H](C)C(=O)O)cc4O3)cc2)ccn1 (stereo in doubt; 23)

Reply:
1. > 179%
2. > 179%
3. > 179%

====

Assign max activation to each entry below.
target: Free fatty acid receptor 1 (Homo sapiens); assay: Agonist activity at recombinant human GPR40 expressed in HEK293 cells assessed as increase in IP1 accumulation measured after 60 mins by HTRF assay relative to AM-1638; format: functional, cell-based
Answers are plain numbers, in %.

| compound | max activation [%] |
| --- | --- |
| CSc1cccc(-c2ccc(C3CCc4ccc([C@@H](CC(=O)O)C5CC5)cc4O3)cc2)c1 (mixture of isomers) | 500 |

Next, consider the following compound.
Task item: Test system Free fatty acid receptor 1 (Homo sapiens); read-out max activation; what value for COc1cccc(-c2ccc(C3CCc4ccc([C@@H](CC(=O)O)C5CC5)cc4O3)cc2)n1 (mixture of isomers) ?
Reply: 535
